System: SF-295 CNS
Assay: NCI tumour cell line growth inhibition, 48 h
I'd appreciate it if you could supply TGI values for the items below.

In the examples that follow, each entry is paired with its recorded TGI.
Request: Requested read-out TGI, target or system SF-295 CNS, entry CCOc1ccc(N2C(=O)NC3(c4ccccc4)N(C)C(=O)N(C)C23c2ccccc2)cc1 (stereo not given)
Response: > 100 µM

Request: What about N#CC(c1ccccc1)N(CCc1ccccc1)C(=O)c1ccc(C(=O)N(CCc2ccccc2)C(C#N)c2ccccc2)cc1 (stereo not given) ?
Response: 51.9 µM

Request: What about OCC(O)C(O)C(O)C(O)CNCCO/N=C1/C(c2c(O)[nH]c3ccccc23)=Nc2ccccc21 (stereo not given) ?
Response: > 50 µM

Below is a list of compounds. For each, state its recorded TGI.
1. COC(=O)CN=C1NC(=S)N(Cc2ccc(OC)cc2)C12CCCC2
2. C=C1C2C[C@@H]3O[C@H]4C[C@H]5O[C@@]6(C[C@@H]7O[C@]8(C[C@H](C)[C@@H]9O[C@@H]%10CC(C=O)O[C@@H]%10C[C@@H]9O8)C[C@H](C)[C@@H]7O6)C[C@H]5O[C@H]4[C@H](C)[C@H]3OC(=O)C[C@H]3CC[C@@H]4OC5[C@H]6O[C@]7(CC[C@H]8CC(=C)[C@H](CC[C@@H](C[C@H]1C)O2)O8)CC6O[C@@H]5[C@@H](O7)[C@H]4O3 (stereo not given in full)

Response:
> 100 µM
> 1 µM

====

Test system: NCI-H23 lung
Experiment: NCI tumour cell line growth inhibition, 48 h; in the data active = GI50 below about 0.43 µM; inactive = the rest
Select the matching outcome among class 1 = active, class 0 = inactive

Request: Record lookup: outcome of this test for COc1ccc(CN2C(=O)/C(=C\C(=O)c3ccc(OCCN4CCCC4)cc3)c3ccccc32)cc1 ?
Response: class 0

Request: What about CCNC(=O)Oc1ccc(/C(=C(\C)c2ccc(Cl)cc2)c2ccc(OCCN(CC)CC)cc2)cc1 ?
Response: class 0

Request: What about CCSc1nc(NC(C)c2ccccc2)c2cnn(CO)c2n1 (stereo not drawn) ?
Response: class 0

Request: What about COc1ccc(N=N/C(=N\NC(=O)c2cc(Br)ccc2O)c2ccc(N(CCC#N)CCC#N)cc2OC)cc1 ?
Response: class 0

Request: What about CCCCCCCCCCCCNC(=O)N[C@H](C(=O)N[C@H]1/C=C/CCNC(=O)/C=C/[C@H](C)NC1=O)C(C)C ?
Response: class 1

Request: What about CON=C1C[C@]2(C[C@@H]3C[C@@H](C/C=C(\C)C[C@@H](C)/C=C/C=C4\CO[C@@H]5[C@H](O)C(C)=C[C@@H](C(=O)O3)[C@]45O)O2)O[C@H](/C(C)=C/C(C)C)[C@H]1C ?
Response: class 0

Continuing:
Request: Record lookup: outcome of this test for O=C(NCCCl)NCCN1c2nc3ccccc3cc2Sc2cc3ccccc3nc21 ?
Response: class 0

Request: What about C=C1C[C@@H](O)[C@@H](Br)C(C)(C)[C@]12CCC(C)(Br)C(Cl)C2 (stereo partly drawn) ?
Response: class 0

====

Test system: MALME-3M melanoma
Assay: NCI tumour cell line growth inhibition, 48 h
MEASUREMENT_LABEL: GI50

Request: Requested read-out GI50, target or system MALME-3M melanoma, entry Cc1ccc(/C=C(/C#N)n2nnc3ncccc32)cc1
Response: 1.76 µM

Request: What about CN1CCN(Cc2ccc(NC(=O)c3cncc(C#Cc4c(N)ncc5c(F)cccc45)c3)cc2C(F)(F)F)CC1 ?
Response: 0.443 µM

Request: What about O=C(COc1cccc(/C=C2\COc3ccccc3C2=O)c1)c1ccccc1 ?
Response: 13.1 µM

Request: What about C[C@@H]1CC[C@H]2[C@@H](C)C(OC/C=C/COC3O[C@@H]4O[C@@]5(C)CC[C@H]6[C@H](C)CC[C@@H]([C@H]3C)[C@@]46OO5)O[C@@H]3O[C@@]4(C)CC[C@@H]1[C@]32OO4 (stereo partly drawn) ?
Response: 0.0428 µM

Request: What about CCC[CH2][Sn]1([CH2]CCC)[O]C(=O)CN=C(C)c2ccccc2[O]1 ?
Response: 1.04 µM

Below is a list of compounds. For each, state its recorded GI50.
1. Cc1cc(I)cc(CNCCN2CCOCC2)c1O
2. Clc1ccc(C2CC(c3cccc(Nc4ccncc4)c3)=NN2c2ccccc2)cc1 (stereo not drawn)

Response:
1. > 100 µM
2. 1.58 µM

Below is a list of compounds. For each, state its recorded GI50.
1. Nc1nc(=S)c2ncn(C3OC(CO)C(O)C3O)c2[nH]1 (stereo not drawn)
2. O=c1c2cccc(F)c2sc2c(NCCCNCCO)nc3ccccc3c12

Response:
1. 1.2 µM
2. 1.61 µM

Below is a list of compounds. For each, state its recorded GI50.
1. CCC(CC)c1cc(N[C@H]2CC[C@H](N)C2)n2nccc2n1
2. N.N.N.N.N.N#Cc1nn[n-]n1.[Cl-].[Co+3]
3. NS(=O)(=O)c1ccc(N=Nc2c(O)[nH]c3ccc(C(=O)NCCc4cnc[nH]4)cc23)cc1
4. O=C(Nc1ccc(Oc2ccc(NC(=O)Nc3ccccc3Cl)cc2)cc1)Nc1ccccc1Cl

Response:
2.07 µM
> 100 µM
> 25 µM
15.4 µM

====

I'd appreciate it if you could supply TGI values for the items below.
Test system: OVCAR-4 ovarian
Test: NCI tumour cell line growth inhibition, 48 h

Request: Given O=[N+]([O-])c1cnc(N(CCO)CCO)s1 , state its recorded TGI.
Response: > 100 µM

Request: What about O=C(c1cc(Cl)cc(Cl)c1)N(Cc1cccnc1)C(=S)N(Cc1cccnc1)C(=O)c1cc(Cl)cc(Cl)c1 ?
Response: 89.6 µM

Below is a list of compounds. For each, state its recorded TGI.
1. Cc1cc2c(C(=O)NCC#N)cccc2n1-c1nc2c(c(NCc3ccccc3)n1)CCCC2
2. CCOC(CN(C)C(=O)Nc1ccc(Cl)c(Cl)c1)OCC

Response:
1. 1.76 µM
2. > 10 µM

Below is a list of compounds. For each, state its recorded TGI.
1. COc1ccc2nc3cc([N+](=O)[O-])ccc3c(NNc3ccc([N+](=O)[O-])cc3)c2c1
2. CSCCC(NC(=O)Cc1ccc(C(=O)c2ccccc2)cc1)C(=O)N1CCN(CCCCN2c3ccccc3Sc3cc(N=[N+]=[N-])ccc32)CC1 (stereo not given)
3. CCCCOC(=O)/C=C\C(=O)NC(N)=O
4. COc1cccc(CCNC(=O)CC(c2ccccc2)(c2ccccc2)c2ccccc2)c1
5. OCC1C2CCC3(OCCO3)C12 (stereo not given)
6. N#CC(C#N)=Cc1ccc(C(O)P(=O)(O)O)cc1 (stereo not given)
7. CC(C)(C)C(O)CC(O)(C(F)(F)F)C(F)(F)F (stereo not given)
8. Cc1cc(I)cc(CNCCN2CCOCC2)c1O

Response:
> 100 µM
> 100 µM
43.8 µM
> 100 µM
> 100 µM
> 100 µM
> 100 µM
> 100 µM

====

Test system: HL-60(TB) leukemia
Experiment: NCI tumour cell line growth inhibition, 48 h; in the data active = GI50 below about 0.43 µM; inactive = the rest
Select the matching outcome among YES (active), NO (inactive)

Worked examples follow.
Request: Record lookup: outcome of this test for CCC1=C[C@@H]2CN(C1)Cc1c([nH]c3ccccc13)[C@@](C(=O)OC)(c1cc3c(cc1OC)N(C)[C@H]1[C@@](O)(C(=O)OC)[C@H](OC(C)=O)[C@]4(CC)C=CCN5CC[C@]31[C@@H]54)C2 ?
Response: YES

Request: What about CCCCOC(=O)/C=C\C(=O)NC(N)=O ?
Response: NO

Continuing:
Request: Record lookup: outcome of this test for c1ccc(COCC[P+](c2ccccc2)(c2ccccc2)c2ccccc2)cc1 ?
Response: YES

Request: What about CCSc1nc(NC(C)c2ccccc2)c2cnn(CO)c2n1 (centres undefined) ?
Response: NO

====

I'd appreciate it if you could supply TGI values for the items below.
Test system: SNB-75 CNS
Test: NCI tumour cell line growth inhibition, 48 h

Below is a list of molecules. For each, state its recorded TGI.
1. CC(C)C1CC(CO)(CNc2nc(N)nc(Cl)c2/C=N\O)C1 (stereo not given)
2. Cc1cc(Cl)ccc1NC(=O)CC1SC(=NC(=O)c2ccccc2Cl)NC1=O (stereo not given)
3. COc1ccc(N=C(CS(=O)c2ccc(C)cc2)C(F)(F)F)cc1 (stereo not given)
4. N#CC(c1ccccc1)N(CCc1ccccc1)C(=O)c1ccc(C(=O)N(CCc2ccccc2)C(C#N)c2ccccc2)cc1 (stereo not given)

Response:
43.6 µM
35 µM
> 100 µM
45.8 µM

Request: Given O=S(=O)(Nc1nccs1)c1ccc([As](=O)(O)O)cc1 , state its recorded TGI.
Response: > 100 µM

====

I'd appreciate it if you could supply TGI values for the items below.
System: SR leukemia
Experiment: NCI tumour cell line growth inhibition, 48 h

In the examples that follow, each entry is paired with its recorded TGI.
Request: Given CC1(c2nc3ccccc3[nH]2)CCC(C#N)C(C)(C)O1 (centres undefined) , state its recorded TGI.
Response: > 100 µM

Request: What about CCCC(=O)N(C)N=Nc1ccc(C(=O)OCC)cc1 ?
Response: > 100 µM

Request: What about COc1ccc(N2C(=O)C(=O)N(C)C2=O)c2ccccc12 ?
Response: > 10 µM

API: the following record is the query input.
Request: Given C=C1C2C[C@@H]3O[C@H]4C[C@H]5O[C@@]6(C[C@@H]7O[C@]8(C[C@H](C)[C@@H]9O[C@@H]%10CC(C=O)O[C@@H]%10C[C@@H]9O8)C[C@H](C)[C@@H]7O6)C[C@H]5O[C@H]4[C@H](C)[C@H]3OC(=O)C[C@H]3CC[C@@H]4OC5[C@H]6O[C@]7(CC[C@H]8CC(=C)[C@H](CC[C@@H](C[C@H]1C)O2)O8)CC6O[C@@H]5[C@@H](O7)[C@H]4O3 (some centres undefined) , state its recorded TGI.
Response: > 1 µM
